Tested on: MCF-7 human breast cancer cells
EXPERIMENT_SUMMARY: Cytotoxicity, MTT method
SETTINGS: read-out: Cytotoxicity, half maximal inhibitory concentration (IC50); MCF-7, MTT
REPORTED_ENDPOINT: pIC50
Kindly note that pIC50 refers to -log10 of the concentration in mol/L and answer with the value alone.

# query: pIC50 of entry C/C(=C\c1csc(C)n1)[C@@H]1C[C@@H]2O[C@]2(C)CCC[C@H](C)[C@H](O)[C@@H](C)C(=O)C(C)(C)[C@@H](O)CC(=O)O1 [epothilon B, reference compound]
10.52

###

EXPERIMENT_SUMMARY: Cytotoxicity, MTT method
SETTINGS: human, SK-OV-3 ovary cancer cells
Source text: […]
Here, each record is paired with measured pIC50 data.
Kindly note that pIC50 refers to -log10 of the concentration in mol/L and answer with the value alone.

Known pIC50 results, listed for orientation:
CCCC(=O)O[C@H]1c2cc(C)cc(O)c2C(=O)C2=C(O)[C@H]3C=C[C@]21Cc1cc(O)c2c(c13)O[C@@](C(=O)OC)([C@@H](O)CCC(=O)O)CC2=O : 5.41
CCCC(=O)O[C@H]1c2cc(C)cc(O)c2C(=O)C2=C(O)[C@H]3C=C[C@]21Cc1cc(O)c2c(c13)O[C@@](C(=O)OC)([C@@H]1CCC(=O)O1)CC2=O : 5.41
CCCC(=O)O[C@H]1c2cc(C)cc(O)c2C(=O)C2=C(O)[C@H]3C=C[C@]21Cc1cc(O)c2c(c13)O[C@]1(C(=O)OC)C(=C(O)CC[C@@H]1O)C2=O : 6.82
CCCC(=O)O[C@H]1c2cc(C)cc(O)c2C(=O)C2=C(O)[C@H]3C=C[C@]21Cc1cc(O)c2c(c13)O[C@@]1(C(=O)OC)C(=C(O)CC[C@@H]1O)C2=O : 6.89

Please look at the following molecule next.
# query: pIC50 of entry COC(=O)[C@]12Oc3c(c(O)cc4c3[C@@H]3C=C[C@]5(C4)C(=C(O)c4c(O)cc(C)cc4[C@@H]5O)C3=O)C(=O)C1=C(O)CC[C@@H]2O
6.33

###

Test system: Pseudomonas aeruginosa
EXPERIMENT_SUMMARY: MIC, antibacterial test
Format: cell-based
Parameters: key: –: no inhibition observed under test conditions
REPORTED_ENDPOINT: Minimum inhibitory concentration (MIC)

CCCC(=O)O[C@H]1c2cc(C)cc(O)c2C(=O)C2=C(O)[C@H]3C=C[C@]21Cc1cc(O)c2c(c13)O[C@@](C(=O)OC)([C@@H]1CCC(=O)O1)CC2=O [Compound 6, Xanthoquinodin B14] : –
CCCC(=O)O[C@H]1c2cc(C)cc(O)c2C(=O)C2=C(O)[C@H]3C=C[C@]21Cc1cc(O)c2c(c13)O[C@@]1(C(=O)OC)C(=C(O)[C@@H](O)C[C@@H]1O)C2=O [Compound 4, Xanthoquinodin B12] : –
CCCC(=O)O[C@H]1c2cc(C)cc(O)c2C(=O)C2=C(O)[C@H]3C=C[C@]21Cc1cc2c(c(O)c13)C(=O)C1=C(O)CC[C@H](O)[C@@]1(C(=O)OC)O2 [Compound 1, Xanthoquinodin A11] : –

###

EXPERIMENT_SUMMARY: Cytotoxicity, MTT method
SETTINGS: mouse, L929 fibroblasts
Excerpt: […]
REPORTED_ENDPOINT: pIC50
Kindly note that pIC50 refers to -log10 of the concentration in mol/L and answer with the value alone.

Known pIC50 results, listed for orientation:
CCCC(=O)O[C@H]1c2cc(C)cc(O)c2C(=O)C2=C(O)[C@H]3C=C[C@]21Cc1cc(O)c2c(c13)O[C@@](C(=O)OC)([C@@H]1CCC(=O)O1)CC2=O : 4.98
CCCC(=O)O[C@H]1c2cc(C)cc(O)c2C(=O)C2=C(O)[C@H]3C=C[C@]21Cc1cc(O)c2c(c13)O[C@@](C(=O)OC)([C@@H](O)CCC(=O)O)CC2=O : 5.00
CCCC(=O)O[C@H]1c2cc(C)cc(O)c2C(=O)C2=C(O)[C@H]3C=C[C@]21Cc1cc(O)c2c(c13)O[C@]1(C(=O)OC)C(=C(O)CC[C@@H]1O)C2=O : 6.01

# query: pIC50 of entry CCCC(=O)O[C@H]1c2cc(C)cc(O)c2C(=O)C2=C(O)[C@H]3C=C[C@]21Cc1cc(O)c2c(c13)O[C@@]1(C(=O)OC)C(=C(O)CC[C@@H]1O)C2=O
5.84

Entry COC(=O)[C@]12Oc3c(c(O)cc4c3[C@@H]3C=C[C@]5(C4)C(=C(O)c4c(O)cc(C)cc4[C@@H]5O)C3=O)C(=O)C1=C(O)CC[C@@H]2O please
5.33
